This collection of values is drawn from patent US10113968B2.

Assay: Isothermal titration calorimetry (ITC) of CL-containing vesicles with TTAPE-Me
Type: binding
Settings: 25° C., CL-containing vesicles TOCL/DOPC 1:1, curve fitting, read-out: dissociation constant
Protocol: [dye]=10 μM; [lipid]total=22 μM; λex=350 nm. (B) Job plot for determination of the binding stoichiometry of TTAPE-Me to CL-containing vesicles. The total concentration of TTAPE-Me and CL is kept at 20 μM. […] According to the AIE principle, TTAPE-Me is only fluorescent when bound, and thus the fluorescence can report the binding of TTAPE-Me to CL-containing vesicles. The emission intensity varying ratios of TTAPE-Me to CL-containing LUVs is then recorded and correlated to a Job plot (FIG. 5B). […]
OBSERVATION_TYPE: pKd
As a rule, pKd stands for the negative log10 of the concentration, concentration in M.

Quick one: pKd of C[N+](C)(C)CCOc1ccc(C(=C(c2ccc(OCC[N+](C)(C)C)cc2)c2ccc(OCC[N+](C)(C)C)cc2)c2ccc(OCC[N+](C)(C)C)cc2)cc1.[Br-].[Br-].[Br-].[Br-] ?
5.68
